# Lookup of reported sfGFP reporter fluorescence keyed by entry
B1: library; a variant is named by its letters at X, in order (parent)
chain: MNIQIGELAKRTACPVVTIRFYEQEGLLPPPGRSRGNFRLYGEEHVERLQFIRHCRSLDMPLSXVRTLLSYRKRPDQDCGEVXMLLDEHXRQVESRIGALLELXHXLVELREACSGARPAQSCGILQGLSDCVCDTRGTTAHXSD

# Variants of: B1
# test: sfGFP reporter fluorescence (15 h) (µM FITC); higher = stronger transcriptional activation
# experimental_context: library round: Round 3b; ligand: 30 µM Zn

Here is how some variants turned out for sfGFP reporter fluorescence.
input: Provide measured sfGFP reporter fluorescence value, entry: `KFATHR`
output: 0.171

input: Provide measured sfGFP reporter fluorescence value, entry: `KNATEP`
output: 0.261

input: Provide measured sfGFP reporter fluorescence value, entry: `KNAKER`
output: 0.621

input: Provide measured sfGFP reporter fluorescence value, entry: `DFAVHR`
output: 0.0519

input: Provide measured sfGFP reporter fluorescence value, entry: `KNAKET`
output: 0.569

input: Provide measured sfGFP reporter fluorescence value, entry: `KNAVAP`
output: 0.214

---
input: Provide measured sfGFP reporter fluorescence value, entry: `DFITAR`
output: 0.0455

Reference for the values: the supplement of paper PMC12783771
